// values below are reported cAMP EMax(obs.)
Molecular target: T1, truncated human P1R deleted for residues (24-181) (hP1R-delNt) (human, UniProt Q03431 182-593)
T1 sequence (looked up): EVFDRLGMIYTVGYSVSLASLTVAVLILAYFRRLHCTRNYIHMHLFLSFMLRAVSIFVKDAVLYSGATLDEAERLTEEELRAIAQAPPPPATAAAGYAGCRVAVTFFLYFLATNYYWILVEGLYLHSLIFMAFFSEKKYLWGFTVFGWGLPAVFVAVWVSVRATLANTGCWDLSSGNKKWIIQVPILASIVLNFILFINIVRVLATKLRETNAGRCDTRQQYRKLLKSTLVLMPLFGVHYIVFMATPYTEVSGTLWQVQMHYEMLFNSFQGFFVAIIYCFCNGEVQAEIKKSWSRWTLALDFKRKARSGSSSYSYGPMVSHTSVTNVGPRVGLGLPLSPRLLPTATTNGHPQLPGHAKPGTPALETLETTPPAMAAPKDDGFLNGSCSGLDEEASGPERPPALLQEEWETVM
Assay: cell-based or functional assay
Square brackets hold non-standard residues; d marks the D form. Ends that are not written are not given here. hArg = N=C(N)NCCCC[C@H](N)C(=O)O; Aib = CC(C)(N)C(=O)O
propertyName: cAMP EMax(obs.)

| binder | val |
| --- | --- |
| AVAEIQLMHQ[hArg]AKW-NH2 (N-terminus assumed; SMILES CC[C@H](C)[C@H](NC(=O)[C@H](CCC(=O)O)NC(=O)[C@H](C)NC(=O)[C@@H](NC(=O)[C@H](C)N)C(C)C)C(=O)N[C@@H](CCC(N)=O)C(=O)N[C@@H](CC(C)C)C(=O)N[C@@H](CCSC)C(=O)N[C@@H](Cc1c[nH]cn1)C(=O)N[C@@H](CCC(N)=O)C(=O)N[C@@H](CCCCNC(=N)N)C(=O)N[C@@H](C)C(=O)N[C@@H](CCCCN)C(=O)N[C@@H](Cc1c[nH]c2ccccc12)C(N)=O, X = Har; also called [M]PTH(1-14); 621 [M]PTH(1-14)) [[Ala^3,12,Gln^10,Har^11,Trp^14]PTH(1-14)amide] | 220 pmole/well |
| AVSEIQLXHNLGKHLASVERXQWLRKKLQDVHNY (Nle (norleucine) at 8 and 21; C-terminal amide, also called 92 PTH(1-34); 92.5 PTH(1-34)) [[Nle^8,21,Tyr^34]PTH(1-34)amide (rat sequence)] | 220 pmole/well |
| [Aib]V[Aib]EIQLMHQ-NH2 (N-terminus assumed; SMILES CC[C@H](C)[C@H](NC(=O)[C@H](CCC(=O)O)NC(=O)C(C)(C)NC(=O)[C@@H](NC(=O)C(C)(C)N)C(C)C)C(=O)N[C@@H](CCC(N)=O)C(=O)N[C@@H](CC(C)C)C(=O)N[C@@H](CCSC)C(=O)N[C@@H](Cc1c[nH]cn1)C(=O)N[C@@H](CCC(N)=O)C(N)=O, also called 684 [Aib^1,3, M]PTH (1-10); [Aib^1,3,M]PTH(1-10)) [[Aib^1,3,Gln^10]PTH(1-10)] | 84 pmole/well |
| AVSEIQLMHNLGKH-NH2 (also called 521 PTH(1-14)) [native PTH(1-14) (rat sequence, amide)] | 110 pmole/well |
| [Aib]V[Aib]EIQLMHQ[hArg]-NH2 (N-terminus assumed; SMILES CC[C@H](C)[C@H](NC(=O)[C@H](CCC(=O)O)NC(=O)C(C)(C)NC(=O)[C@@H](NC(=O)C(C)(C)N)C(C)C)C(=O)N[C@@H](CCC(N)=O)C(=O)N[C@@H](CC(C)C)C(=O)N[C@@H](CCSC)C(=O)N[C@@H](Cc1c[nH]cn1)C(=O)N[C@@H](CCC(N)=O)C(=O)N[C@@H](CCCCNC(=N)N)C(N)=O, also called 682 [Aib^1,3, M]PTH (1-11); [Aib^1,3,Gln^10,Har^11]PTH(1-11)) [[Aib^1,3,M]PTH(1-11)] | 220 pmole/well |
| [Aib]V[Aib]EIQLMHQ[hArg]AKW-NH2 (N-terminus assumed; SMILES CC[C@H](C)[C@H](NC(=O)[C@H](CCC(=O)O)NC(=O)C(C)(C)NC(=O)[C@@H](NC(=O)C(C)(C)N)C(C)C)C(=O)N[C@@H](CCC(N)=O)C(=O)N[C@@H](CC(C)C)C(=O)N[C@@H](CCSC)C(=O)N[C@@H](Cc1c[nH]cn1)C(=O)N[C@@H](CCC(N)=O)C(=O)N[C@@H](CCCCNC(=N)N)C(=O)N[C@@H](C)C(=O)N[C@@H](CCCCN)C(=O)N[C@@H](Cc1c[nH]c2ccccc12)C(N)=O, also called 671 [Aib^1,3, M]PTH (1-14); 671 [Aib^1,3M]PTH(1-14)) [[Aib^1,3,M]PTH(1-14)] | 250 pmole/well |

Data provenance: patent US20050026839A1
